Each entry below lists one item and its recorded PBM E-score value.
MEASUREMENT TARGET: Yap3 (UniProt P38749)
Sequence: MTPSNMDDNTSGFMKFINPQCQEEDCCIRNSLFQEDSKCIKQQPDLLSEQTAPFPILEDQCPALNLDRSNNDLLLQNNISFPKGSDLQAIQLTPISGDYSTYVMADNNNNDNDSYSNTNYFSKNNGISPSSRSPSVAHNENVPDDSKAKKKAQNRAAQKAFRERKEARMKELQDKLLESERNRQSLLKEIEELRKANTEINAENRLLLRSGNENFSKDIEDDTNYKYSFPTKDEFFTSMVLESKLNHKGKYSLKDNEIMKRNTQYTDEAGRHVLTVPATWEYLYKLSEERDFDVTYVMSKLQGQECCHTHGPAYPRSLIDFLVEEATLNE
METHOD SUMMARY: PBM E-score (8-mer binding enrichment) (E-score (-0.5 to 0.5)); higher = stronger / more preferred TF binding
MEASUREMENT CONTEXT: protein concentration: 100 nM; construct: GST-full length
Whole data set: some 33,000 sequences, median “E-score (-0.5 to 0.5)” near -0.0034, cut for the highest 2% near 0.25. This excerpt belongs to a sample that is enriched for the highest values.
Respond using a number only.

Past entries and their recorded results:
> print(dat)
   seq.text  reported.value
1  AATAATTA           0.316
2  GATTAAGA           0.193
3  GTATATAA           0.217
4  AGGTATAA          0.0868
5  AATAATTC           0.263

Exercise: PBM E-score for "AATTAAGA" ?
Key: 0.154

Exercise: PBM E-score for "TATTAACA" ?
Key: 0.23

Exercise: PBM E-score for "CATAATTC" ?
Key: 0.23

Exercise: PBM E-score for "CATAATGA" ?
Key: 0.118

Exercise: PBM E-score for "GATAATTA" ?
Key: 0.251

Exercise: PBM E-score for "TGGTATAA" ?
Key: 0.268

* * *

MEASUREMENT TARGET: Yap3 (UniProt P38749)
Sequence: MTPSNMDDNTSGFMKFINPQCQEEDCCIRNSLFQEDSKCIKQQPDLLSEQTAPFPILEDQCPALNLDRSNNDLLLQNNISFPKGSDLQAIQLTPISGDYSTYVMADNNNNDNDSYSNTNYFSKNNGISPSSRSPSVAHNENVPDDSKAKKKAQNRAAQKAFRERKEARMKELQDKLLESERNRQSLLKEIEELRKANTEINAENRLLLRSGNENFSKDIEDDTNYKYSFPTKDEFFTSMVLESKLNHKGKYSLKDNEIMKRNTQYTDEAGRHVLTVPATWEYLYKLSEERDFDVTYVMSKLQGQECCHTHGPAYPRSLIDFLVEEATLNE
METHOD SUMMARY: PBM E-score (8-mer binding enrichment) (E-score (-0.5 to 0.5)); higher = stronger / more preferred TF binding
MEASUREMENT CONTEXT: protein concentration: 100 nM; construct: GST-full length
The full ranking holds about 33,000 sequences; the median of “E-score (-0.5 to 0.5)” is about -0.0034, and the highest 2% start at about 0.25. This is one part of a sample in which the highest values are shown more often than they occur.
Each entry below lists one item and its recorded PBM E-score value.

> print(dat)
   seq.text     measurement.target  reported.value
1  AGTATATC  Yap3 (UniProt P38749)          0.0292
2  TGTATAAA  Yap3 (UniProt P38749)           0.211
3  AATAGTAG  Yap3 (UniProt P38749)           0.206
4  AGTATAAC  Yap3 (UniProt P38749)         -0.0565
5  AATAGTAC  Yap3 (UniProt P38749)          0.0612

Exercise: PBM E-score for "AATAGTTG" ?
Key: 0.267

Exercise: PBM E-score for "AGTATAAG" ?
Key: 0.193

Exercise: PBM E-score for "CATAGTAA" ?
Key: 0.198

Exercise: PBM E-score for "ATTATAAT" ?
Key: 0.319

Exercise: PBM E-score for "AGTATATG" ?
Key: 0.157

* * *

MEASUREMENT TARGET: Yap3 (UniProt P38749)
Sequence: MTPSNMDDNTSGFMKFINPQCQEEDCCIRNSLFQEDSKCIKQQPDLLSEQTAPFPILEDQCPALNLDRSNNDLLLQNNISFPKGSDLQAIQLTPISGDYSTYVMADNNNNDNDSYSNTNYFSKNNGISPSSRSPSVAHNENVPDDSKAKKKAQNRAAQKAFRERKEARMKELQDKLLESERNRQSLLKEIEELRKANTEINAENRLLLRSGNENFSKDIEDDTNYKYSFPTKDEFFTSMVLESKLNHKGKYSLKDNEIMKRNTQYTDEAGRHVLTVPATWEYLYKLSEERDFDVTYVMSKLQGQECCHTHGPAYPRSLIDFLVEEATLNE
METHOD SUMMARY: PBM E-score (8-mer binding enrichment) (E-score (-0.5 to 0.5)); higher = stronger / more preferred TF binding
MEASUREMENT CONTEXT: protein concentration: 100 nM; construct: GST-full length
Over roughly 33,000 sequences, “E-score (-0.5 to 0.5)” has its median near -0.0034; the highest 2% begin near 0.25. The sample holds the highest values, similar sequences and a random draw of the others, so the mix is not that of the screen.
Each record's class is read off its PBM E-score using these ranges: lowest = under 0.1, middle = from 0.1 up to 0.2, highest = 0.2 and over

Observe how each entry below is paired with its result.
> print(dat)
   seq.text  class.assignment
1  ATCACTCG            lowest
2  AGTACGAA           highest
3  ACATAAGA            middle
4  AGAAAGCA           highest
5  ATTTAGCC            lowest

Exercise: Lab log: "CAAAGTGA" — assign PBM E-score category
Key: lowest

Exercise: Lab log: "AAAAGTGA" — assign PBM E-score category
Key: middle

* * *

MEASUREMENT TARGET: Yap3 (UniProt P38749)
Sequence: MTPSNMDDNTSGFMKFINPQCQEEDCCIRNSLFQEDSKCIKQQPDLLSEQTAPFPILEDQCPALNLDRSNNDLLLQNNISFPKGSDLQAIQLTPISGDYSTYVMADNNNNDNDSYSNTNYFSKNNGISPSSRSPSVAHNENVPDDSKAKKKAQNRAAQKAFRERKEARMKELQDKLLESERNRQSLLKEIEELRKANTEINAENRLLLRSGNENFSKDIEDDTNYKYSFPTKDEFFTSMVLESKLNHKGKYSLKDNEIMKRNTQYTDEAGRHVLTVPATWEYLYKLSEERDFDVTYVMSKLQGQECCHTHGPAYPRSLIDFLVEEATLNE
METHOD SUMMARY: PBM E-score (8-mer binding enrichment) (E-score (-0.5 to 0.5)); higher = stronger / more preferred TF binding
MEASUREMENT CONTEXT: protein concentration: 100 nM; construct: GST-full length
Over roughly 33,000 sequences, “E-score (-0.5 to 0.5)” has its median near -0.0034; the highest 2% begin near 0.25. The entries come from a sample that favours the highest values as a whole.
Please note: Condition met applies when PBM E-score is 0.03 or greater, and Condition not met applies otherwise.

Observe how each entry below is paired with its result.
> print(dat)
   seq.text   class.assignment
1  AAAGTATA      Condition met
2  AGAGTTAG  Condition not met
3  TATAATAA      Condition met

Exercise: Quick check, PBM E-score >= 0.03? "CAACCGCA"
Key: Condition not met

Exercise: Quick check, PBM E-score >= 0.03? "AGTCGACT"
Key: Condition met

Exercise: Quick check, PBM E-score >= 0.03? "AAACACTC"
Key: Condition met

Exercise: Quick check, PBM E-score >= 0.03? "AACGGAAT"
Key: Condition met

* * *

MEASUREMENT TARGET: Yap3 (UniProt P38749)
Sequence: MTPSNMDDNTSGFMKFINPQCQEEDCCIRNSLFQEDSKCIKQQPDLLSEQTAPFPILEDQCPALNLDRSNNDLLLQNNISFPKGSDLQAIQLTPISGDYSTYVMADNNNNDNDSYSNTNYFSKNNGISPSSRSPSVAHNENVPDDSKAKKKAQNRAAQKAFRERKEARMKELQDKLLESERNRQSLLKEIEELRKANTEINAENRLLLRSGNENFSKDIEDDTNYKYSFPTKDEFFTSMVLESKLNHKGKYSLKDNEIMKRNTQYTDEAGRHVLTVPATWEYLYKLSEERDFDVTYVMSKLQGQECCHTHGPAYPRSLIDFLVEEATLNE
METHOD SUMMARY: PBM E-score (8-mer binding enrichment) (E-score (-0.5 to 0.5)); higher = stronger / more preferred TF binding
MEASUREMENT CONTEXT: protein concentration: 100 nM; construct: GST-full length
Whole data set: some 33,000 sequences, median “E-score (-0.5 to 0.5)” near -0.0034, cut for the highest 2% near 0.25. The full list was thinned out, with the highest values kept by preference.
TEST READOUT: PBM E-score
Respond using a number only.

> print(dat)
    seq.text     measurement.target  reported.value
 1  ATTTTATG  Yap3 (UniProt P38749)            0.21
 2  ACTTGTCC  Yap3 (UniProt P38749)          0.0688
 3  AATATGGC  Yap3 (UniProt P38749)          0.0119
 4  ATTTTCCC  Yap3 (UniProt P38749)          0.0787
 5  ATTTTATC  Yap3 (UniProt P38749)           0.235
 6  ATACCACC  Yap3 (UniProt P38749)           0.086
 7  TGTTCTAA  Yap3 (UniProt P38749)           0.256
 8  CGTTTATA  Yap3 (UniProt P38749)            0.28
 9  ATTTTCCG  Yap3 (UniProt P38749)           0.325
10  ATTTTCAG  Yap3 (UniProt P38749)           0.286

Exercise: API: value(readout= PBM E-score, system= Yap3 (UniProt P38749), query= "ACTTTATC" )
Key: 0.169

Exercise: API: value(readout= PBM E-score, system= Yap3 (UniProt P38749), query= "ACTTTATA" )
Key: 0.259

Exercise: API: value(readout= PBM E-score, system= Yap3 (UniProt P38749), query= "AGTTCTAA" )
Key: -0.0287
